Value source: paper PMC5640562

Give melting point for every item shown.

COc1cc(C=C2SC(=S)NC2=O)ccc1OCc1nc2ccccc2c(=O)n1-c1cccc(Br)c1 (hydrate or solvate) | 243 to 245 °C

Please look at the items below and tell me melting point for each one, in order.
1. COc1cc(C=C2SC(=S)NC2=O)ccc1OCc1nc2ccccc2c(=O)n1-c1ccc(Br)cc1 (hydrate or solvate)
2. COc1cc(C=C2SC(=S)NC2=O)ccc1OCc1nc2ccccc2c(=O)n1-c1cccc(Cl)c1
3. COc1cc(C=C2SC(=S)NC2=O)ccc1OCc1nc2ccccc2c(=O)n1-c1ccccc1 (hydrate or solvate)
4. O=C1NC(=S)SC1=Cc1ccc(OCc2nc3ccccc3c(=O)n2-c2ccc(C(F)(F)F)cc2)cc1 (hydrate or solvate)

["214 to 217 °C", "147 to 150 °C", "243 to 246 °C", "153 to 155 °C"]
